- Test system: NanoLuc luciferase (NLuc)
- assayText: normalised percent inhibition of luminescence (vs positive and negative controls); higher = stronger inhibition
- conditionsUsed: metal salt concentration 5 mM; 100 mM HEPES buffer
measurementType: normalised percent inhibition (%)
The figure you give is taken to be in %; do not add the unit.

[[record]]
molecule = "O=S(=O)([O-])[O-].[Fe+2] [iron(II) sulfate]"
measurementtype = "normalised percent inhibition"
resultnumber = 102

[[record]]
molecule = "[Cl][Pt-2]([Cl])([Cl])[Cl].[K+].[K+] [potassium tetrachloroplatinate(II)]"
measurementtype = "normalised percent inhibition"
resultnumber = 97

[[record]]
molecule = "[Cl][Sn][Cl] [tin(II) chloride]"
measurementtype = "normalised percent inhibition"
resultnumber = 11.3

[[record]]
molecule = "[Cl][Fe][Cl] [iron(II) chloride]"
measurementtype = "normalised percent inhibition"
resultnumber = 102


Prompt line: Bench note: what normalised percent inhibition did [Cl][Fe]([Cl])[Cl] [iron(III) chloride] show?
Response line: 102

###

- Test system: NanoLuc luciferase (NLuc)
- assayText: normalised percent inhibition of luminescence (vs positive and negative controls); higher = stronger inhibition
- conditionsUsed: metal salt concentration 0.05 mM; screening conditions buffer
measurementType: normalised percent inhibition (%)
Respond with the bare value in %.

These solved cases illustrate the format of a correct answer.
[[record]]
molecule = "[Cl][Fe]([Cl])[Cl] [iron(III) chloride]"
resultnumber = -3.71

[[record]]
molecule = "[Cl][Sn][Cl] [tin(II) chloride]"
resultnumber = -1.81

[[record]]
molecule = "[Cl][Pt-2]([Cl])([Cl])[Cl].[K+].[K+] [potassium tetrachloroplatinate(II)]"
resultnumber = 18.1

[[record]]
molecule = "O=[N+]([O-])[O-].O=[N+]([O-])[O-].[Pb+2] [lead(II) nitrate]"
resultnumber = -4.15


Turning to the following molecule.
Prompt line: What value of normalised percent inhibition has been reported for the following molecule? O=[N+]([O-])[O-].O=[N+]([O-])[O-].[Cd+2] [cadmium nitrate]
Response line: 17.7

###

normalised percent inhibition by entry:
- System: NanoLuc luciferase (NLuc)
- assayText: normalised percent inhibition of luminescence (vs positive and negative controls); higher = stronger inhibition
- conditionsUsed: metal salt concentration 0.2 mM; screening conditions buffer

Prompt line: Which normalised percent inhibition value belongs to [Cl][Fe]([Cl])[Cl] [iron(III) chloride] ?
Response line: 31.9%

Prompt line: Request the reported normalised percent inhibition associated with CC#N.CC#N.CC#N.CC#N.F[B-](F)(F)F.[Cu+] [tetrakis(acetonitrile)copper(I) tetrafluoroborate]
Response line: 159%

Prompt line: What measured normalised percent inhibition goes with [Cl][Sn][Cl] [tin(II) chloride] ?
Response line: 6.52%

Prompt line: # normalised percent inhibition lookup, item O=[N+]([O-])[O-].O=[N+]([O-])[O-].[Pb+2] [lead(II) nitrate]
Response line: 0.428%

Prompt line: Which normalised percent inhibition is reported for this compound? O=S(=O)([O-])[O-].[Fe+2] [iron(II) sulfate]
Response line: 49.5%

Prompt line: Could you tell me which normalised percent inhibition is on file for [Cl][Pt-2]([Cl])([Cl])[Cl].[K+].[K+] [potassium tetrachloroplatinate(II)] ?
Response line: 60.3%

Prompt line: Which value of normalised percent inhibition has been reported for O=[N+]([O-])[O-].O=[N+]([O-])[O-].[Zn+2] [zinc nitrate] in the records?
Response line: 78.9%

###

- Tested on: firefly luciferase (FLuc)
- assayText: normalised percent inhibition of luminescence (vs positive and negative controls); higher = stronger inhibition
- conditionsUsed: metal salt concentration 0.002 mM; screening conditions buffer
measurementType: normalised percent inhibition
Please state the number and follow it with the unit.

[[record]]
molecule = "O=[N+]([O-])[O-].[Ag+] [silver nitrate]"
measurementtype = "normalised percent inhibition"
result = "101%"

[[record]]
molecule = "[Cl][Sn][Cl] [tin(II) chloride]"
measurementtype = "normalised percent inhibition"
result = "-6.84%"

[[record]]
molecule = "O=S(=O)([O-])[O-].[Fe+2] [iron(II) sulfate]"
measurementtype = "normalised percent inhibition"
result = "1.35%"

[[record]]
molecule = "CC#N.CC#N.CC#N.CC#N.F[B-](F)(F)F.[Cu+] [tetrakis(acetonitrile)copper(I) tetrafluoroborate]"
measurementtype = "normalised percent inhibition"
result = "6.86%"

[[record]]
molecule = "[Cl][Fe][Cl] [iron(II) chloride]"
measurementtype = "normalised percent inhibition"
result = "-3.52%"

[[record]]
molecule = "[Cl][Pt-2]([Cl])([Cl])[Cl].[K+].[K+] [potassium tetrachloroplatinate(II)]"
measurementtype = "normalised percent inhibition"
result = "23.2%"


Prompt line: # normalised percent inhibition lookup, item O=[N+]([O-])[O-].O=[N+]([O-])[O-].[Zn+2] [zinc nitrate]
Response line: 21.1%

Prompt line: State the recorded normalised percent inhibition for this entry: [Cl][Fe]([Cl])[Cl] [iron(III) chloride]
Response line: 14.7%

###

- System: firefly luciferase (FLuc)
- assayText: normalised percent inhibition of luminescence (vs positive and negative controls); higher = stronger inhibition
- conditionsUsed: metal salt concentration 0.02 mM; screening conditions buffer
Measured normalised percent inhibition by item
Unit % implied. Number only.

Example compounds with recorded normalised percent inhibition:
[[record]]
compound = "[Cl][Fe][Cl] [iron(II) chloride]"
measurementtype = "normalised percent inhibition"
resultnumber = 1.67

[[record]]
compound = "O=S(=O)([O-])[O-].[Fe+2] [iron(II) sulfate]"
measurementtype = "normalised percent inhibition"
resultnumber = 6.54

[[record]]
compound = "[Cl][Fe]([Cl])[Cl] [iron(III) chloride]"
measurementtype = "normalised percent inhibition"
resultnumber = 95.8

[[record]]
compound = "[Cl][Pt-2]([Cl])([Cl])[Cl].[K+].[K+] [potassium tetrachloroplatinate(II)]"
measurementtype = "normalised percent inhibition"
resultnumber = 39.4


Next item in the queue.
Prompt line: I am curious: what normalised percent inhibition value has been reported for O=[N+]([O-])[O-].O=[N+]([O-])[O-].[Zn+2] [zinc nitrate] ?
Response line: 17.9

###

- Test system: NanoLuc luciferase (NLuc)
- assayText: normalised percent inhibition of luminescence (vs positive and negative controls); higher = stronger inhibition
- conditionsUsed: metal salt concentration 0.001 mM; 100 mM HEPES buffer
// values below are reported normalised percent inhibition
Express the result in % but write the number alone.

[[record]]
compound = "[Cl][Pt-2]([Cl])([Cl])[Cl].[K+].[K+] [potassium tetrachloroplatinate(II)]"
resultnumber = 0.76

[[record]]
compound = "[Cl][Sn][Cl] [tin(II) chloride]"
resultnumber = -2.16

[[record]]
compound = "O.O.O.O.O.O.O.O=S(=O)([O-])[O-].[Mg+2] [magnesium sulfate]"
resultnumber = -0.202

[[record]]
compound = "O=[N+]([O-])[O-].O=[N+]([O-])[O-].[Cd+2] [cadmium nitrate]"
resultnumber = -0.485

[[record]]
compound = "O=[N+]([O-])[O-].[Ag+] [silver nitrate]"
resultnumber = 2.97

[[record]]
compound = "[Cl][Fe]([Cl])[Cl] [iron(III) chloride]"
resultnumber = -0.138

[[record]]
compound = "O=[N+]([O-])[O-].O=[N+]([O-])[O-].[Cu+2] [copper(II) nitrate]"
resultnumber = 0.0805

[[record]]
compound = "O=S(=O)([O-])[O-].[Fe+2] [iron(II) sulfate]"
resultnumber = 0.251

[[record]]
compound = "[Cl][Fe][Cl] [iron(II) chloride]"
resultnumber = -0.324


# evaluate next
Prompt line: Item: CC#N.CC#N.CC#N.CC#N.F[B-](F)(F)F.[Cu+] [tetrakis(acetonitrile)copper(I) tetrafluoroborate] Test system: NanoLuc luciferase (NLuc) Read-out: normalised percent inhibition Value: ?
Response line: 4.37

###

Entries and their normalised percent inhibition
- Test system: NanoLuc luciferase (NLuc)
- assayText: normalised percent inhibition of luminescence (vs positive and negative controls); higher = stronger inhibition
- conditionsUsed: metal salt concentration 5 mM; screening conditions buffer
Enter your answer as a number in %; do not include the unit.

[[record]]
molecule = "[Cl][Fe][Cl] [iron(II) chloride]"
systemtested = "NanoLuc luciferase (NLuc)"
uom = "%"
resultnumber = 160

[[record]]
molecule = "[Cl][Sn][Cl] [tin(II) chloride]"
systemtested = "NanoLuc luciferase (NLuc)"
uom = "%"
resultnumber = 137

[[record]]
molecule = "O=[N+]([O-])[O-].[Ag+] [silver nitrate]"
systemtested = "NanoLuc luciferase (NLuc)"
uom = "%"
resultnumber = 135


Prompt line: Find the recorded normalised percent inhibition belonging to O=[N+]([O-])[O-].O=[N+]([O-])[O-].O=[N+]([O-])[O-].[Ga+3] [gallium(III) nitrate] and report it.
Response line: 120

Prompt line: Would you kindly share the measured normalised percent inhibition for [Cl][Pt-2]([Cl])([Cl])[Cl].[K+].[K+] [potassium tetrachloroplatinate(II)] ?
Response line: 135

Prompt line: Which normalised percent inhibition is listed for CC#N.CC#N.CC#N.CC#N.F[B-](F)(F)F.[Cu+] [tetrakis(acetonitrile)copper(I) tetrafluoroborate] ?
Response line: 162

Prompt line: Please report the recorded normalised percent inhibition for O=[N+]([O-])[O-].O=[N+]([O-])[O-].[Pb+2] [lead(II) nitrate] .
Response line: 129

Prompt line: So what's the measured normalised percent inhibition for this one? O=[N+]([O-])[O-].O=[N+]([O-])[O-].[Zn+2] [zinc nitrate]
Response line: 126
